Test system: human red blood cells
Experiment notes: Hemolysis assay with red blood cells
Assay context: human, 1 h, 200 μM, pH 7.2
Procedure: The hemolysis activities of select compounds of the invention were determined. […] The washing was repeated three times with the buffer. In 96-well plate, test compounds were added to the buffer from DMSO stocks. […] Then 80 μL of the supernatant was transferred to another 96-well plate, and the optical density (OD) was read at 405 nm. […] The percent of hemolysis was calculated as (OD405 of the compound−OD405 of DMSO)/(OD405 of Triton X−OD405 of the buffer). […]
Assay endpoint: % Hemolysis (200 μM)

Any idea what its % Hemolysis (200 μM) is? The compound is Oc1c(Cl)cc(Br)c2nc3cc(Br)c(Br)cc3nc12 [Compound 15]
2.1%

Any idea what its % Hemolysis (200 μM) is? The compound is Oc1ccc(Br)c2nc3cc(Cl)c(Cl)cc3nc12 [Compound 11]
2.7%

Any idea what its % Hemolysis (200 μM) is? The compound is CC(=O)NC[C@H]1CN(c2ccc(N3CCOCC3)c(F)c2)C(=O)O1 [Linezolid, linezolid, reference compound]
≤1%

Any idea what its % Hemolysis (200 μM) is? The compound is Oc1ccc(I)c2nc3cc(Cl)c(Cl)cc3nc12 [Compound 12, 7,8-Dichloro-4-iodo-1-hydroxyphenazine]
1.4%

Any idea what its % Hemolysis (200 μM) is? The compound is Oc1c(I)cc(Br)c2nc3ccccc3nc12 [Compound 10, 4-Bromo-2-iodo-1-hydroxyphenazine]
1.3%

Any idea what its % Hemolysis (200 μM) is? The compound is Oc1c(I)cc(I)c2nccnc12 [Compound 26]
≤1%

Any idea what its % Hemolysis (200 μM) is? The compound is Oc1c(Cl)cc(I)c2nc3ccccc3nc12 [Compound 6, 2-Chloro-4-iodo-1-hydroxyphenazine]
5.1%

Any idea what its % Hemolysis (200 μM) is? The compound is Oc1c(Cl)cc(Br)c2nc3ccccc3nc12 [Compound 5, 4-Bromo-2-chloro-1-hydroxyphenazine]
≤1%

Any idea what its % Hemolysis (200 μM) is? The compound is Cc1nc2c(Br)cc(Br)c(O)c2nc1C [Compound 27]
≤1%

Any idea what its % Hemolysis (200 μM) is? The compound is Oc1c(Br)cc(Cl)c2nc3ccccc3nc12 [Compound 7, 2-Bromo-4-chloro-1-hydroxyphenazine]
≤1%

----------
Values of MIC reported for MRSA BAA-44 appear below.
Numbers only here, please. The scale is µM.

Any idea what its MIC is? The compound is Oc1ccc(Br)c2nc3cc(Br)c(Br)cc3nc12
1.56

Any idea what its MIC is? The compound is Oc1c(Cl)cc(I)c2nc3ccccc3nc12 [Compound 6, 2-Chloro-4-iodo-1-hydroxyphenazine]
1.56

Any idea what its MIC is? The compound is Oc1c(I)cc(I)c2nccnc12
1.56

Any idea what its MIC is? The compound is Oc1c(Cl)cc(Cl)c2nc3ccccc3nc12 [Compound 3, 2,4-Dichloro-1-hydroxyphenazine]
3.13

Any idea what its MIC is? The compound is Oc1c(I)cc(I)c2nc3ccccc3nc12 [Compound 4, 2,4,-Diiodo-1-hydroxyphenazine]
3.13

Any idea what its MIC is? The compound is Oc1c(Cl)cc(Br)c2nc3ccccc3nc12 [Compound 5, 4-Bromo-2-chloro-1-hydroxyphenazine]
3.13

Any idea what its MIC is? The compound is Oc1c(Br)cc(Cl)c2nc3ccccc3nc12 [Compound 7, 2-Bromo-4-chloro-1-hydroxyphenazine]
1.56

Any idea what its MIC is? The compound is Oc1c(I)cc(Cl)c2nc3ccccc3nc12 [Compound 9, 4-Chloro-2-iodo-1-hydroxyphenazine]
12.5

Any idea what its MIC is? The compound is Oc1c(Br)cc(I)c2nc3cc(Cl)c(Cl)cc3nc12
3.13

Any idea what its MIC is? The compound is Oc1c(Br)cc(Br)c2nc3cc(Br)c(Br)cc3nc12 [Compound 17, 2,4,7,8-tetrabromo-1-hydroxyphenazine]
25

Any idea what its MIC is? The compound is Oc1c(Br)cc(Br)c2nccnc12
12.5

Any idea what its MIC is? The compound is Oc1c(Cl)cc(Br)c2nc3cc(Br)c(Br)cc3nc12
25

----------
Test system: Enterococcus faecium (ATCC 700221), VRE
Experiment notes: MIC assay (broth microdilution, CLSI)
Assay type: cell-based
Assay context: Enterococcus faecium, Table 2B; b lowest concentration tested; read-out: MIC, Enterococcus faecium (ATCC 700221)
For each of the molecules below, state its MIC.
Numbers only here, please. The scale is µM.

Any idea what its MIC is? The molecule is Oc1c(Br)cc(Br)c2nc3cc(Cl)c(Cl)cc3nc12
0.39

Any idea what its MIC is? The molecule is Oc1c(Br)cc(Br)c2nc3cc(Br)c(Br)cc3nc12 [Compound 17, 2,4,7,8-tetrabromo-1-hydroxyphenazine]
0.39

Any idea what its MIC is? The molecule is Oc1c(Br)cc(I)c2nc3cc(Cl)c(Cl)cc3nc12
0.1

Any idea what its MIC is? The molecule is CC(=O)NC[C@H]1CN(c2ccc(N3CCOCC3)c(F)c2)C(=O)O1 [Linezolid, linezolid, reference compound]
3.13

Taken from patent US20180312473A1.
